target: CTLA-4 (Homo sapiens (Human)) (UniProt P16410); assay: flow cytometry, transfected cells
Sequence (P16410 36-223): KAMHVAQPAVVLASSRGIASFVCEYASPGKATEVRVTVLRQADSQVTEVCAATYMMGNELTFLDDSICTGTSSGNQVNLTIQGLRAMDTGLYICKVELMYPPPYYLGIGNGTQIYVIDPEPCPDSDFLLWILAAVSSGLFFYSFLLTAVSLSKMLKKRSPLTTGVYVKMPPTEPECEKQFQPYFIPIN
endpointLabel: MFI ratio to WT (ΔWT) (fold)
Hi! Could you send only the number? It should be in fold, unit omitted.

# binder, MFI ratio to WT (ΔWT) (fold)
data = [
    ("ICOSL-Fc N52S/N57L/Q100S (Fc fusion) DTQEKEVRAMVGSDVELSCACPEGSRFDLNDVYVYWQTSESKTVVTYHIPQSSSLELVDSRYRNRALMSPAGMLRGDFSLRLFNVTPQDEQKFHCLVLSSSLGFQEVLSVEVTLHVAANFSVPVVSAPHSPSQDELTFTCTSINGYPRPNVYWINKTDNSLLDQALQNDTVFLNMRGLYDVVSVLRIARTPSVNIGCCIENVLLQQNLTVGSQTGNDIGERDKITENPVSTGEKNAAT", 0.6),
    ("ICOSL-Fc N52S/N57Y/Q100M (Fc fusion) DTQEKEVRAMVGSDVELSCACPEGSRFDLNDVYVYWQTSESKTVVTYHIPQSSSLEYVDSRYRNRALMSPAGMLRGDFSLRLFNVTPQDEQKFHCLVLSMSLGFQEVLSVEVTLHVAANFSVPVVSAPHSPSQDELTFTCTSINGYPRPNVYWINKTDNSLLDQALQNDTVFLNMRGLYDVVSVLRIARTPSVNIGCCIENVLLQQNLTVGSQTGNDIGERDKITENPVSTGEKNAAT", 1.2),
]

Request: Return reported MFI ratio to WT (ΔWT); argument: ICOSL-Fc N52K/N57Y/Q100R (Fc fusion) DTQEKEVRAMVGSDVELSCACPEGSRFDLNDVYVYWQTSESKTVVTYHIPQKSSLEYVDSRYRNRALMSPAGMLRGDFSLRLFNVTPQDEQKFHCLVLSRSLGFQEVLSVEVTLHVAANFSVPVVSAPHSPSQDELTFTCTSINGYPRPNVYWINKTDNSLLDQALQNDTVFLNMRGLYDVVSVLRIARTPSVNIGCCIENVLLQQNLTVGSQTGNDIGERDKITENPVSTGEKNAAT
Result: 0.71
